# method: Pharmacokinetics of 25-mg single morning or evening dose, part 2
# Assay type: in vivo, human
# reported_conditions: human, plasma, oral, 25 mg, AUC0–∞, adjusted gMean, 25 mg single morning dose, fasted
measured_parameter: AUC(0-inf) (µM·h)

1. C[C@@H](Oc1ccc(S(C)(=O)=O)cc1C(=O)N1C[C@@H]2C[C@]2(c2cc(C(F)(F)F)on2)C1)C(F)(F)F	8.77

* * *

# method: Pharmacokinetics after single and multiple doses, part 1
# Assay type: in vivo, human
# reported_conditions: human, plasma, oral, 10 mg, AUC0–24, young, 10 mg QD, single dose, gMean (%CV)
measured_parameter: AUC(0-t) (nM·h)

1. C[C@@H](Oc1ccc(S(C)(=O)=O)cc1C(=O)N1C[C@@H]2C[C@]2(c2cc(C(F)(F)F)on2)C1)C(F)(F)F	1410

Cited source: paper PMC6061410
